Settings: human gut metagenome, 24 h, 2 µM; further: call rule not given here
REPORTED METRIC: Bacterial Biotransformation

Worked cases, answers included:
CCN1CCCC1CNC(=O)c1cc(S(=O)(=O)CC)c(N)cc1OC (centres undefined) [AMISULPRIDE] : Compound NOT metabolized
COc1ccc(Cc2nccc3cc(OC)c(OC)cc23)cc1OC : Compound metabolized
Cc1ccccc1C(OCCN(C)C)c1ccccc1.O=C(O)CC(O)(CC(=O)O)C(=O)O (centres undefined) [ORPHENADRINE CITRATE] : Compound NOT metabolized
CCN(C(C)=O)c1cccc(-c2ccnc3c(C#N)cnn23)c1 : Compound metabolized
CCOC(=O)C1=C[C@]2(CC)CCCN3CCc4c(n1c1ccccc41)[C@@H]32 : Compound metabolized
CN(C/C=C/C#CC(C)(C)C)Cc1cccc2ccccc12 : Compound NOT metabolized
CCS(=O)(=O)CCn1c([N+](=O)[O-])cnc1C : Compound metabolized
OCCN(CCO)c1nc(N2CCCCC2)c2nc(N(CCO)CCO)nc(N3CCCCC3)c2n1 : Compound metabolized
C=CC[C@@H]1/C=C(\C)C[C@H](C)C[C@H](OC)[C@H]2O[C@@](O)(C(=O)C(=O)N3CCCC[C@H]3C(=O)O[C@H](/C(C)=C/[C@@H]3CC[C@@H](O)[C@H](OC)C3)[C@H](C)[C@@H](O)CC1=O)[C@H](C)C[C@@H]2OC.O : Compound metabolized
COc1ccc([C@@H]2Sc3ccccc3N(CCN(C)C)C(=O)[C@@H]2OC(C)=O)cc1 : Compound NOT metabolized

Inquiry: Query Bacterial Biotransformation for CCc1cccc2c3c([nH]c12)C(CC)(CC(=O)O)OCC3 (centres undefined)
Reply text: Compound NOT metabolized

Inquiry: Query Bacterial Biotransformation for CN1CCN(C2=Nc3ccccc3Oc3ccc(Cl)cc32)CC1.O=C(O)CCC(=O)O [LOXAPINE SUCCINATE]
Reply text: Compound NOT metabolized

Inquiry: Query Bacterial Biotransformation for C#C[C@]1(OC(C)=O)CC[C@H]2[C@@H]3CCC4=C/C(=N/O)CC[C@@H]4[C@H]3CC[C@@]21CC [NORGESTIMATE]
Reply text: Compound NOT metabolized

Inquiry: Query Bacterial Biotransformation for Nc1nc(NC2CC2)c2ncn([C@H]3C=C[C@@H](CO)C3)c2n1.Nc1nc(NC2CC2)c2ncn([C@H]3C=C[C@@H](CO)C3)c2n1.O=S(=O)(O)O [ABACAVIR SULFATE]
Reply text: Compound metabolized

----------
Conditions: human gut metagenome, 24 h, 2 µM
REPORTED METRIC: Bacterial Biotransformation

Worked cases, answers included:
CC(C)(C)N.CCC[C@H](N[C@@H](C)C(=O)N1[C@H](C(=O)O)C[C@@H]2CCCC[C@@H]21)C(=O)OCC [PERINDOPRIL ERBUMINE] : Compound NOT metabolized
CC(C)(C)NC(=O)[C@H]1CC[C@H]2[C@@H]3CC[C@H]4NC(=O)C=C[C@]4(C)[C@H]3CC[C@]12C [FINASTERIDE] : Compound metabolized
N=C(N)NC(=O)Cc1c(Cl)cccc1Cl [GUANFACINE] : Compound NOT metabolized
Cc1cc2c(s1)Nc1ccccc1N=C2N1CCN(C)CC1 [OLANZAPINE] : Compound NOT metabolized
CCN(CC)CCOC(=O)C1(C2CCCCC2)CCCCC1 [DICYCLOMINE] : Compound metabolized
Nc1nnc(-c2cccc(Cl)c2Cl)c(N)n1 [LAMOTRIGINE] : Compound NOT metabolized
CCOC(=O)C1=C(C)NC(C)=C(C(=O)OC)C1c1cccc([N+](=O)[O-])c1 (centres undefined) [NITRENDIPINE] : Compound metabolized
COc1cc2nc(N3CCN(C(=O)C4CCCO4)CC3)nc(N)c2cc1OC (centres undefined) [TERAZOSIN] : Compound NOT metabolized

Inquiry: Query Bacterial Biotransformation for CC(=O)Oc1ccc(C(c2ccc(OC(C)=O)cc2)c2ccccn2)cc1 [BISACODYL]
Reply text: Compound metabolized
